test system: HeLa Kyoto; assay: thermal stability score vs G1/S (z-score of summed log2 fold changes over temperatures); higher = more thermally stable than in G1/S; details: cell cycle stage: mitosis;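 also: synchronized HeLa Kyoto cells, proteins quantified by TMT10plex mass spectrometry, three biological replicates, mitosis taken 0.5 h after nocodazole release, G1/S directly after double thymidine block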
endpoint.name: thermal stability score
Keep it simple and answer with nothing but the number.

Tell me measured thermal stability score for MTGNAGEWCLMESDPGVFTELIKGFGCRGAQVEEIWSLEPENFEKLKPVHGLIFLFKWQPGEEPAGSVVQDSRLDTIFFAKQVINNACATQAIVSVLLNCTHQDVHLGETLSEFKEFSQSFDAAMKGLALSNSDVIRQVHNSFARQQMFEFDTKTSAKEEDAFHFVSYVPVNGRLYELDGLREGPIDLGACNQDDWISAVRPVIEKRIQKYSEGEIRFNLMAIVSDRKMIYEQKIAELQRQLAEEEPMDTDQGNSMLSAIQSEVAKNQMLIEEEVQKLKRYKIENIRRKHNYLPFIMELLKTLAEHQQLIPLVEKAKEKQNAKKAQETK [UCHL5] please.
2.51

Tell me measured thermal stability score for MELSAEYLREKLQRDLEAEHVEVEDTTLNRCSCSFRVLVVSAKFEGKPLLQRHRLVNACLAEELPHIHAFEQKTLTPDQWARERQK [BOLA2] please.
0.288

Tell me measured thermal stability score for MERPDKAALNALQPPEFRNESSLASTLKTLLFFTALMITVPIGLYFTTKSYIFEGALGMSNRDSYFYAAIVAVVAVHVVLALFVYVAWNEGSRQWREGKQD [VMA21] please.
-0.397
